Target: renin (Homo sapiens)
Sequence (P00797 67-406): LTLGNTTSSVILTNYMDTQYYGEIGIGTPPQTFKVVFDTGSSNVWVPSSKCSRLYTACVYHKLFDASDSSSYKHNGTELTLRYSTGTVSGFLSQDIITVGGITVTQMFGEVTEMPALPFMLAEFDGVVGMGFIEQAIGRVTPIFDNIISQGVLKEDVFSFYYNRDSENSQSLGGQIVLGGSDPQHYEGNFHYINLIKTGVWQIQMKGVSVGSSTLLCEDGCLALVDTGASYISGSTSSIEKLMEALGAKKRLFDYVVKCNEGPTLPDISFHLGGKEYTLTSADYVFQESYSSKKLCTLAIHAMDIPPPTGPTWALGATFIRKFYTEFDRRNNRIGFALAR
Test: in vitro renin inhibitory activity, radioimmunoassay for angiotensin I
Assay type: biochemical
Details: renin incubated two hours at 37° with substrate angiotensinogen; angiotensin I by radioimmunoassay; molar concentration causing 50% inhibition
quantity: pIC50
Numbers only, as −log10 of the molar value.

Example entries begin here.
>  <substance>
DNMA--HIS--LEU[CHOHCH2 ]SO2 NHCH2 CH2 Ph [Example 1]

>  <meas-value>
4.92

$$$$
>  <substance>
DNMA--HIS--CYCLOHEXYLALA[CHOHCHOH]CH2 OH [Example 7]

>  <meas-value>
6.55

$$$$
>  <substance>
DNMA--HIS--CYCLOHEXYLALA[CHOHCH2 ]GLY--NHCH2 CH(CH3)--CH2 CH3 [Example 16]

>  <meas-value>
6.60

$$$$
>  <substance>
DNMA[CHOHCH2 ]LEU--STA--NHCH2 CH(CH3)CH2 CH3 [Example 20]

>  <meas-value>
5.72

$$$$

Consider now this further substance.
Q: Write down measured pIC50 (renin (Homo sapiens)) for this substance. DNMA--HIS--CYCLOHEXYLALA[CHOHCH2 ]GLY--LEU--NHCH2 Ph [Example 11]
Ans: 5.19

----------
Record form. Attribute: IC50. Fill in for each entry.
Molecular target: renin (Homo sapiens, UniProt P00797)
Experiment: in vitro renin inhibitory activity, radioimmunoassay for angiotensin I
Format: biochemical
Conditions: renin incubated two hours at 37° with substrate angiotensinogen; angiotensin I by radioimmunoassay; molar concentration causing 50% inhibition
Give bare numbers, in µM.

Example entries begin here.
>  <substance>
DNMA--HIS--CYCLOHEXYLALA[CHOHCH2 ]GLY--NHCH2 Ph [Example 17]

>  <IC50, µM>
3.4

$$$$
>  <substance>
DNMA--HIS--CYCLOHEXYLALA[CHOHCH2 ]LEU--NHCH2 Ph [Example 14]

>  <IC50, µM>
4.4

$$$$
>  <substance>
DNMA--HIS--CYCLOHEXYLALA[CHOHCH2 ]LEU--NHCH2 CH(CH3)--CH2 CH3 [Example 15]

>  <IC50, µM>
0.17

$$$$
>  <substance>
DNMA--HIS--STA[CHOHCH2 ]CH2 Ph [Example 18]

>  <IC50, µM>
12

$$$$

Consider now this further substance.
Q: Identify IC50 associated with the substance DNMA--HIS--CYCLOHEXYLALA[CHOHCH2 ](CH2)2 CH(CH3)2 [Example 5]
Ans: 1.8

----------
Molecular target: renin (Homo sapiens)
Test: in vitro renin inhibitory activity, radioimmunoassay for angiotensin I
Assay type: biochemical
Conditions: renin incubated two hours at 37° with substrate angiotensinogen; angiotensin I by radioimmunoassay; molar concentration causing 50% inhibition; listed as DNMAHIS STA[CHOHCH2 ]CH2 Ph (ISOMER)
quantity: pIC50
Numbers only, as −log10 of the molar value.

Q: Identify pIC50 associated with the substance DNMA--HIS--STA[CHOHCH2 ]CH2 Ph [Example 19]
Ans: 5.85
